ASSAY SYSTEM: T1, human GITR-Fc (human, UniProt Q9Y5U5 26-162)
T1 construct: also called recombinant hGITR; wild type human GITR-Fc
T1 sequence: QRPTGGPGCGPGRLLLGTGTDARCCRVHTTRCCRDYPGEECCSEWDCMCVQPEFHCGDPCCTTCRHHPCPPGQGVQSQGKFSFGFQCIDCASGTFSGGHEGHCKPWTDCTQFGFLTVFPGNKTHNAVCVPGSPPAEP
ASSAY NOTES: BLI Octet RED384, ABP on AHQ sensor, 100 nM antigen, single concentration;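 further: association and dissociation each tracked over 180 s, with dissociation run in antigen-free buffer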
PROPERTY MEASURED: Kd (nM)
Give bare numbers, in nM.

For orientation, consider the following solved cases.
ABP45 (antibody, human IgG1, kappa, N297A, V domains shown, IgG1 N297A, H1H2-optimized, non-TM) VH: QVQLVQSGAEVKKPGSSVKVSCKASGGTFSRGAISWVRQAPGQGLEWMGGIIPIEGTAYYAQKFQGRVTITADESTSTAYMELSSLRSEDTAVYYCARQSDYGLPRGMDVWGQGTTVTVSS VL: DIQLTQSPSSVSASVGDRVTITCRASQGISSWLAWYQQKPGKAPKLLIYGASSLQSGVPSRFSGSGSGTDFTLTISSLQPEDFATYYCQQASLFPPTFGGGTKVEIKR
112
ABP39 (antibody, human IgG1, kappa, N297A, V domains shown, IgG1 N297A, bivalent; also called non-TM ABP corresponding to ABP6) VH: QVQLQESGPGLVKPSETLSLTCAVSGYSISSGAGWGWIRQPPGKGLEWIGLIVHSGSTYYNPSLKSRVTISVDTSKNQFSLKLSSVTAADTAVYYCVLESVRGYGDYGGHHAFDIWGQGTMVTVSS VL: DIQMTQSPSSLSASVGDRVTITCRASQSISSYLNWYQQKPGKAPKLLIYAADSLQSGVPSRFSGSGSGTDFTLTISSLQPEDFATYYCQQEYNTPPTFGGGTKVEIKR
0.7
ABP16 (antibody, human IgG1, kappa, N297A, V domains shown) VH: QVQLVQSGAEVKKPGSSVKVSCKASGGTFSSYAISWVRQAPGQGLEWMGGIIPISGFTNYAQKFQGKVTITADESTSTAYMELSSLRSEDTAVYYCAREGGHYYSGWPYWGQGTLVTVSS VL: EIVLTQSPATLSLSPGERATLSCRASQSVSSYLAWYQQKPGQAPRLLIYDASNRATGIPARFSGSGSGTDFTLTISSLEPEDFAVYYCQQRLVFPPTFGGGTKVEIKR
2.9
ABP37 (antibody, human IgG1, kappa, N297A, V domains shown, IgG1 N297A, bivalent; also called non-TM ABP corresponding to ABP3) VH: QVQLQESGPGLVKPSETLSLTCAVSGYSISSGAGWGWIRQPPGKGLEWIGLIVHSGSTYYNPSLKSRVTISVDTSKNQFSLKLSSVTAADTAVYYCVLESVRGYGDYGGHHAFDIWGQGTMVTVSS VL: DIQMTQSPSSLSASVGDRVTITCRASQSISSYLNWYQQKPGKAPKLLIYAASSLKYGVPSRFSGSGSGTDFTLTISSLQPEDFATYYCQQEYNTPPTFGGGTKVEIKR
0.7

Turning now to a further binder:
Inquiry: I'd like to know its Kd. The binder in question is ABP38 (antibody, human IgG1, kappa, N297A, V domains shown, IgG1 N297A, bivalent; also called non-TM ABP corresponding to ABP4/5) VH: QVQLQESGPGLVKPSETLSLTCAVSGYSISSGAGWGWIRQPPGKGPEWIGLIVHSGSTYYNPSLKSRVTISVDTSKNQFSLKLSSVTAADTAVYYCVLESVRGYGDYGGHHAFDIWGQGTMVTVSS VL: DIQMTQSPSSLSASVGDRVTITCRASKSIDSYLNWYQQKPGKAPKLLIYAASSLQSGVPSRFSGSGSGTDFTLTISSLQPEDFATYYCQQEYNTPPTFGGGTKVEIKR
Reply text: 0.6

Value source: patent US20210269542A1
